target: ScLsb2; assay: SPOT peptide array binding signal intensity (averaged, normalized) (arbitrary units (background-subtracted, floor 0; scale differs between SH3 domains)); higher = stronger binding of the SH3 domain to the peptide
Returns one of 1 (yes) or 0 (no); 1 (yes) when SPOT peptide array binding signal intensity is >= 10.

>>> df
             binder  class_assignment
 0  NIKVLLNPKLGKPVK            0 (no)
 1  NHSRSLFSLPGNQQS            0 (no)
 2  NLDRSKISLPDFDDE            0 (no)
 3  RMVRRRPLRVQFSAR           1 (yes)
 4  LPPPPPPPPPPPLPQ            0 (no)
 5  PPLPRAPPVPPATFE           1 (yes)
 6  EEEEEHPPLPARRKS           1 (yes)
 7  PPPPPPPPPPPLPQS            0 (no)
 8  NENKKLPPAPTVFGL            0 (no)
 9  RVTRKRPREPKSTND           1 (yes)
10  QDKEGIPPDQQRLIF            0 (no)
11  LLIRWLILMPLVGSR           1 (yes)
12  RRRDFGAPANKRPRR            0 (no)
13  KKEKKPPKIPKKVYT            0 (no)
14  MKRSRPSRSIPYTTP            0 (no)
15  NMLSRPRLAKLPSIR            0 (no)
16  KKIRLIFTYPSTVGR            0 (no)
17  IHTRRPSSTSQYLIR           1 (yes)
18  STKKPRPPVKSKPKH            0 (no)
19  TIRRRAPLSLLESHT            0 (no)
20  NRLRKRLNLPSEISI            0 (no)
21  QRKSLRRPTLSKPAV            0 (no)
22  PKMLPIPSKPTLFDL            0 (no)
23  SRQAIPPPVPNRPGG           1 (yes)
24  FVLRYYILIPHEQWD            0 (no)
25  NSMRPPLLIPAATTK            0 (no)
26  SAPDIPPRSPNRNAH           1 (yes)
27  VNIPSPSSSPPPIPK            0 (no)
